# Tested on: LOX IMVI
# ASSAY_OVERVIEW: NCI tumour cell line growth inhibition, 48 h
Calls of active or inactive are those of the source. Cut-off read from the data, not from the text of the source: active = GI50 up to about 1.1 µM and inactive = higher.
Return exactly one item of yes = active, no = inactive

Please state the recorded outcome for this compound: CC1C(c2ccc3c(c2)OCO3)c2cc3c(cc2OC1N1CCCC1)OCO3 (stereo unspecified)
no

Next: O=C(c1ccc(Cl)cc1)c1ccc(OCC(=O)N2CCN(c3ccccc3)CC2)cc1
no

Next: c1ccc(C2CC(NC3CCCCC3)=Nc3ccccc3N2)cc1 (stereo unspecified)
no

Next: CCOC(=O)C(C)(Cc1ccc(O)cn1)NC(=O)c1ccccc1 (stereo unspecified)
no

Next: CC1=CC2=C(OCO1)C(=O)c1ccccc1C2=O
yes

Next: OCCCCn1cc(Cn2ncc3c(O)ncnc32)nn1
no
